Data origin: PubChem BioAssay AID1159580

- assayOverview: chemical genetic growth profiling, strain panel (AID 1159580);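 note: tested at 20 µM; growth read once vehicle control cultures reached saturation at 30 °C; 1 = growth at the plate median or of vehicle wells; lower values mean less growth of the strain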
- conditionDetails: S. cerevisiae deletion strains, growth OD, locus YHR129C, strain ARP1, stronger effect = lower value
Screen size: about 5,500 compounds; about 2,000 (36%) were called active. Roughly 18% stayed inconclusive and do not appear here. This is one part of the list.
# maps each entry to its normalized growth
Form rule: numeric answer, no unit written next to it.

Previously resolved entries follow.
* CC(C)[C@@H]1CC[C@@H](C)CC1=O | 1.01
* CC(C)N1C(=O)c2ccccc2NS1(=O)=O | 0.996
* COC(=O)c1cc(OC)c(=O)c2c(OC)c(OC)ccc2c1 | 1.02
* COc1ccc(/C=C/c2cc(O)cc(O[C@@H]3O[C@H](CO)[C@@H](O)[C@H](O)[C@H]3O)c2)cc1 | 0.994

The measured normalized growth associated with CC(=O)OC[C@@]1(O)C[C@@]23CCC4c5ccoc5CC[C@]4(C)C2CC[C@@H]1C3 (stereo partly specified) reads 0.985

GET /value?item= CC(=O)Nc1c(I)cc(I)c(C(=O)O)c1I &field=normalized growth returns 0.991

The compound listed as N[C@@H](C(=O)N[C@@H]1C(=O)N2C(C(=O)O)=C(Cl)CS[C@H]12)c1ccccc1 shows normalized growth equal to 1.01

Cc1cc(O)c2c(c1)C(=O)c1cccc(O)c1C2=O has a reported normalized growth of 1

For C[N+]12CCC(CC1)C(OC(=O)C(O)(c1ccccc1)c1ccccc1)C2 (stereo unspecified) the compound record lists normalized growth as 0.99

The compound CC(=O)OCC1=C(C(=O)O)N2C(=O)[C@@H](NC(=O)CSc3ccncc3)[C@H]2SC1 showed normalized growth equal to 0.984

// normalized growth value for CN1C(=O)CC[C@H]1c1cccnc1 : 0.993
